target: Estrogen receptor (Homo sapiens) (UniProt P03372); test: qHTS assay to identify small molecule agonists of the estrogen receptor alpha (ER-alpha) signaling pathway (AID 743075); settings: HEK293 ER-alpha-UAS-bla, beta-lactamase FRET ratio, 18 h; series mostly up to 70.1 µM;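 further: HEK293 GripTite cells with ER-alpha and UAS-driven beta-lactamase reporter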
Sequence (P03372 whole entry, looked up): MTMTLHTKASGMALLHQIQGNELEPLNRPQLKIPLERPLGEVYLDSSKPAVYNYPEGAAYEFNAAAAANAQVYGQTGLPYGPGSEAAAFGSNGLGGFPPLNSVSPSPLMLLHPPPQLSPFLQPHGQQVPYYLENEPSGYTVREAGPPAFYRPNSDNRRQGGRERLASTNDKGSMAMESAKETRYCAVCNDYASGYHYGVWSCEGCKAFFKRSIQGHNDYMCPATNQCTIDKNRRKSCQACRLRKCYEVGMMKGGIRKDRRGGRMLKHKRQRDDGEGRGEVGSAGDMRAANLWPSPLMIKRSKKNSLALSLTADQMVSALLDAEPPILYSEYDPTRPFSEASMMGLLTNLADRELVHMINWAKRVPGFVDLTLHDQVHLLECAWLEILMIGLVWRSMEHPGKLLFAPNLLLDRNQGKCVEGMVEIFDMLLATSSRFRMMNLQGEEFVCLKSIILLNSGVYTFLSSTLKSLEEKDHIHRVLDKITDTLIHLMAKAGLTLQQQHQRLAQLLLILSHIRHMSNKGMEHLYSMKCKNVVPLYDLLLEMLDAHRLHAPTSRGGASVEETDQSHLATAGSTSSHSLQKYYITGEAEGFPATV
Records with an inconclusive call do not appear. The source made the active and inactive calls. The call rests on the fitted dose curve.
A correct response names exactly one class from active, inactive

CCCCCCCCCCCCCC[n+]1ccc(C)cc1	inactive
COC(=O)C1=C(C#N)NC(C)=C(C(=O)OC(C)C)C1c1cccc([N+](=O)[O-])c1 (stereo not given)	inactive
CCC(Oc1ccccc1)C(=O)N[C@@H]1C(=O)N2[C@@H]1SC(C)(C)[C@@H]2C(=O)O (stereo not given in full)	inactive
CCC(C)(C)OC(=O)N[C@@H](Cc1c[nH]c2ccccc12)C(=O)N[C@@H](CCSC)C(=O)N[C@@H](CC(=O)O)C(=O)N[C@@H](Cc1ccccc1)C(N)=O	inactive
CC(=O)O[C@H]1CC[C@@]2(C)C(=CC[C@@H]3[C@@H]2CC[C@]2(C)C(c4cccnc4)=CC[C@@H]32)C1	active

In this assay, the call recorded for `NCc1ccccc1CC(=O)N[C@@H]1C(=O)N2C(C(=O)O)=C(CSc3nnnn3CC(=O)O)CS[C@H]12` was what?
inactive

Next compound: `CCCCCc1ccc(C)cc1O`
inactive

Next compound: `Cc1ncc(COP(=O)(O)O)c(CN)c1O`
inactive

Next compound: `O=c1[nH]cnc2[nH]cc(CN3CCCCC3)c12`
inactive

Next compound: `C=CC[C@@H]1/C=C(\C)C[C@H](C)C[C@H](OC)[C@H]2O[C@@](O)(C(=O)C(=O)N3CCCC[C@H]3C(=O)O[C@H](/C(C)=C/[C@@H]3CC[C@@H](O)[C@H](OC)C3)[C@H](C)[C@@H](O)CC1=O)[C@H](C)C[C@@H]2OC`
inactive

Next compound: `Nc1ncnc2c1ncn2CCOCP(=O)(O)O`
inactive

---

assay: qHTS assay for small molecules that induce genotoxicity in human embryonic kidney cells expressing luciferase-tagged ATAD5 - cell viability (AID 651634); conditions: HEK293T ATAD5-luc cells viability, CellTiter-Fluor, 15.5 h; series mostly up to 83.3 µM; further: nearly all actives have a fitted effect of over 25% in size
Inconclusive results are not listed. Activity calls are given as the source filed them. Calls come from the whole dose curve.
A correct response names exactly one class from yes for active, no for inactive

CC(=O)Nc1ccc(NC(=S)NC(=O)c2ccc(C(C)(C)C)cc2)cc1	no
CCCC(=O)Nc1c(I)cc(I)c(CC(CC)C(=O)O)c1I (stereo not drawn)	no
C[C@@H]1C[C@H]2[C@@H]3CCC4=CC(=O)C=C[C@]4(C)[C@@]3(F)[C@@H](O)C[C@]2(C)[C@@]1(O)C(=O)COC(=O)c1cccc(S(=O)(=O)O)c1	no
CCCCCCCCCCCCCCCCSCC(COC)COP(=O)([O-])OCC[N+](C)(C)C (stereo not drawn)	no
Cc1nc(NS(=O)(=O)c2ccc(N)cc2)nc(C)c1Br	no

In this assay, the call recorded for CN1CCN2c3ncccc3Cc3ccccc3C2C1 (stereo not drawn) was what?
no

Next compound: `CS(=O)(=O)OCCCNCCCOS(C)(=O)=O`
no

Next compound: `O=[n+]1ccn([O-])c2ccccc21`
no

---

assay: qHTS assay to identify small molecule antagonists of the estrogen receptor alpha (ER-alpha) signaling pathway - cell viability counter screen (AID 743074); details: ERalpha-bla HEK293 viability, CellTiter-Glo luminescence, 18 h; series mostly up to 69.4 µM;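 further: HEK293 cells carrying ER-alpha-UAS-bla reporter stimulated with 17beta-estradiol; nearly all actives have a fitted effect of over 45% in size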
Records with an inconclusive call do not appear. Active and inactive are the calls of the source. Calls follow the shape of the full dose curve.
A correct response names exactly one class from active, inactive

Past entries and their recorded results:
COC(=O)C1=C(C#N)NC(C)=C(C(=O)OC(C)C)C1c1cccc([N+](=O)[O-])c1 (stereo unspecified)	inactive
CC(C(=O)O)c1ccc(N2Cc3ccccc3C2=O)cc1 (stereo unspecified)	inactive
CCNC(=O)[C@@H]1CCCN1C(=O)[C@H](CCCN=C(N)N)NC(=O)[C@H](CC(C)C)NC(=O)[C@@H](CC(C)C)NC(=O)[C@H](Cc1ccc(O)cc1)NC(=O)[C@H](CO)NC(=O)[C@H](Cc1c[nH]c2ccccc12)NC(=O)[C@H](Cc1cnc[nH]1)NC(=O)[C@@H]1CCC(=O)N1	inactive
CC(C)(C)C(=O)OCOC(=O)[C@@H]1N2C(=O)[C@@H](N=CN3CCCCCC3)[C@H]2SC1(C)C	inactive
NCCCC[C@H](N)C(=O)O	inactive

In this assay, the call recorded for `CCCCCCCCCCCCCCCCOCCOCCOCCOCCOCCOCCOCCOCCOCCOCCOCCOCCOCCOCCOCCOCCOCCOCCOCCOCCO` was what?
active

Next compound: `CC1=C(/C=C/C(C)=C/C=C/C(C)=C/C=C/C=C(C)/C=C/C=C(C)/C=C/C2=C(C)C(=O)CCC2(C)C)C(C)(C)CCC1=O`
inactive

Next compound: `NNc1nnc(Cc2ccncc2)c2ccccc12`
inactive

Next compound: `CO[C@@H]1[C@@H](O[C@@H]2O[C@H](C)[C@@H](O[C@H]3C[C@@](C)(O)[C@@H](O)[C@H](C)O3)[C@H](N(C)C)[C@H]2O)[C@@H](CC=O)C[C@@H](C)[C@@H](O[C@@H]2CC[C@H](N(C)C)[C@@H](C)O2)/C=C/C=C/C[C@@H](C)OC(=O)C[C@H]1O`
inactive

Next compound: `COc1cc2[nH]c(C)c(CCN3CCN(c4ccccc4)CC3)c2cc1OC`
inactive

Next compound: `S=C=Nc1ccc(N=C=S)cc1`
inactive
